- Tested on: BT-549 breast
- assay-comment: NCI-60 one-dose screen, 48 h (100 = growth as untreated, 0 = no growth, -100 = all killed)
- applied-conditions: 10 µM unless noted
Compounds without any hit were thinned out: in the full panel of roughly 83,000, 20% have a hit.
growth strictly less than 90% = T. Otherwise F.

Example cases with answers are listed next.
INSERT INTO assay_data (molecule, class_assignment) VALUES
  ('Cc1ccc(/C=C/c2c(C(=O)/C=C/c3ccccc3)c(C)nc3ccccc23)cc1', 'T'),
  ('C=C[C@]1(C)C=C2CC[C@@H]3C(C)(C)C(=O)CC[C@@]3(C)[C@@H]2CC1', 'F');

Problem: Item `O=C1Nc2ccccc2/C1=C/c1cccn1CCCCCn1c2ccccc2c(=O)c2ccccc21` : growth beneath 90%, strictly?
Result: T

Problem: Item CCCn1nc(C(=O)N2CCCCC2)c2c1CCC(N1CCC(c3ccncc3)CC1)C2 (stereo not given) : growth beneath 90%, strictly?
Result: T
